# TEST PROTOCOL: 2 h pharmacokinetic study with or without elacridar in wild-type and Abcb1a/1b;Abcg2-/- mice
# Assay type: in vivo
# STATED CONDITIONS: FVB (Abcb1a/1b;Abcg2-/-), mouse, liver, with elacridar 50 mg/kg oral, 2 h before selpercatinib; male Abcb1a/1b;Abcg2-/- mice, elacridar 50 mg/kg oral 2 h prior, 10 mg/kg oral, 2 h; read-out: CLiver
PROPERTY: concentration at 2 h (ng/g)
Give the value, in units of ng/g, as a plain number.

Query: Returns the measured concentration at 2 h for the input molecule. Input: COc1ccc(CN2C3CC2CN(c2ccc(-c4cc(OCC(C)(C)O)cn5ncc(C#N)c45)cn2)C3)cn1
Reply: 23600

###

# TEST PROTOCOL: 4 h main pharmacokinetic experiment in wild-type, Abcb1a/1b-/-, Abcg2-/- and Abcb1a/1b;Abcg2-/- mice
# Format: in vivo
# STATED CONDITIONS: FVB (Abcb1a/1b-/-), mouse, plasma; male Abcb1a/1b-/- mice, 10 mg/kg oral, 4 h main experiment
PROPERTY: Cmax

Query: Returns the measured Cmax for the input compound. Input: COc1ccc(CN2C3CC2CN(c2ccc(-c4cc(OCC(C)(C)O)cn5ncc(C#N)c45)cn2)C3)cn1
Reply: 10300 ng/mL

###

# TEST PROTOCOL: 2 h pharmacokinetic study with or without elacridar in wild-type and Abcb1a/1b;Abcg2-/- mice
# Format: in vivo
# STATED CONDITIONS: FVB (wild-type), mouse, liver, with elacridar 50 mg/kg oral, 2 h before selpercatinib; male wild-type mice, elacridar 50 mg/kg oral 2 h prior, 10 mg/kg oral, 2 h; read-out: CLiver
PROPERTY: concentration at 2 h

Query: Returns the measured concentration at 2 h for the input molecule. Input: COc1ccc(CN2C3CC2CN(c2ccc(-c4cc(OCC(C)(C)O)cn5ncc(C#N)c45)cn2)C3)cn1 [selpercatinib]
Reply: 20000 ng/g

###

# TEST PROTOCOL: 2 h pharmacokinetic study with or without elacridar in wild-type and Abcb1a/1b;Abcg2-/- mice
# Type: in vivo
# STATED CONDITIONS: Abcb1a/1b;Abcg2-/- (>99% FVB genetic background), mouse, brain; male Abcb1a/1b;Abcg2-/- mice, elacridar 50 mg/kg oral 2 h prior, 10 mg/kg oral, 2 h; read-out: Cbrain
# Protocol: Mice were housed and handled according to institutional guidelines complying with Dutch and EU legislation. All experimental animal protocols were evaluated and approved by the institutional animal care and use committee. […] All experimental animal protocols (WP9450, 9669, 9760), including power calculations, designed under the nationally approved DEC/CCD project AVD301002016595, were evaluated and approved by the institutional animal care and use committee of The Netherlands Cancer Institute. […]
PROPERTY: concentration at 2 h (ng/g)
Give the value, in units of ng/g, as a plain number.

Query: Returns the measured concentration at 2 h for the input compound. Input: COc1ccc(CN2C3CC2CN(c2ccc(-c4cc(OCC(C)(C)O)cn5ncc(C#N)c45)cn2)C3)cn1
Reply: 4710

###

# TEST PROTOCOL: 4 h main pharmacokinetic experiment in wild-type, Abcb1a/1b-/-, Abcg2-/- and Abcb1a/1b;Abcg2-/- mice
# Assay type: in vivo
# STATED CONDITIONS: FVB (Abcb1a/1b;Abcg2-/-), mouse, plasma; male Abcb1a/1b;Abcg2-/- mice, 10 mg/kg oral, 4 h main experiment
PROPERTY: Tmax (h)
Give the value, in units of h, as a plain number.

Query: Returns the measured Tmax for the input compound. Input: COc1ccc(CN2C3CC2CN(c2ccc(-c4cc(OCC(C)(C)O)cn5ncc(C#N)c45)cn2)C3)cn1 [selpercatinib]
Reply: 1.5

###

# TEST PROTOCOL: 8 h pharmacokinetic study in wild-type, Cyp3a-/- and Cyp3aXAV mice
# STATED CONDITIONS: female, FVB, wild-type, mouse, in vivo, po, 10 mg/kg, Cbrain
PROPERTY: concentration at 8 h (ng/g)
Give the value, in units of ng/g, as a plain number.

Query: Returns the measured concentration at 8 h for the input molecule. Input: COc1ccc(CN2C3CC2CN(c2ccc(-c4cc(OCC(C)(C)O)cn5ncc(C#N)c45)cn2)C3)cn1
Reply: 82.4

###

# TEST PROTOCOL: 2 h pharmacokinetic study with or without elacridar in wild-type and Abcb1a/1b;Abcg2-/- mice
# Type: in vivo
# STATED CONDITIONS: male, Abcb1a/1b;Abcg2-/- (>99% FVB genetic background), mouse, plasma, po, 10 mg/kg, male Abcb1a/1b;Abcg2-/- mice, elacridar 50 mg/kg oral 2 h prior, 10 mg/kg oral, 2 h
PROPERTY: Cmax

Query: Returns the measured Cmax for the input compound. Input: COc1ccc(CN2C3CC2CN(c2ccc(-c4cc(OCC(C)(C)O)cn5ncc(C#N)c45)cn2)C3)cn1 [selpercatinib]
Reply: 9620 ng/mL

###

# TEST PROTOCOL: 4 h pharmacokinetic pilot study in wild-type, Abcb1a/1b;Abcg2-/- and Slco1a/1b-/- mice
# Assay type: in vivo
# STATED CONDITIONS: male, FVB (Slco1a/1b-/-), mouse, in vivo, po, 10 mg/kg, Cliver
# Protocol: Mice were housed and handled according to institutional guidelines complying with Dutch and EU legislation. All experimental animal protocols were evaluated and approved by the institutional animal care and use committee. […] All experimental animal protocols (WP9450, 9669, 9760), including power calculations, designed under the nationally approved DEC/CCD project AVD301002016595, were evaluated and approved by the institutional animal care and use committee of The Netherlands Cancer Institute. […]
PROPERTY: concentration at 4 h (ng/g)
Give the value, in units of ng/g, as a plain number.

Query: Returns the measured concentration at 4 h for the input compound. Input: COc1ccc(CN2C3CC2CN(c2ccc(-c4cc(OCC(C)(C)O)cn5ncc(C#N)c45)cn2)C3)cn1
Reply: 19900

###

# TEST PROTOCOL: 4 h pharmacokinetic pilot study in wild-type, Abcb1a/1b;Abcg2-/- and Slco1a/1b-/- mice
# Format: in vivo
# STATED CONDITIONS: male, FVB background, wild-type, mouse, in vivo, po, 10 mg/kg, CSIC (small intestine contents concentration)
PROPERTY: concentration at 4 h (ng/g)
Give the value, in units of ng/g, as a plain number.

Query: Returns the measured concentration at 4 h for the input compound. Input: COc1ccc(CN2C3CC2CN(c2ccc(-c4cc(OCC(C)(C)O)cn5ncc(C#N)c45)cn2)C3)cn1 [selpercatinib]
Reply: 91100

###

# TEST PROTOCOL: 4 h pharmacokinetic pilot study in wild-type, Abcb1a/1b;Abcg2-/- and Slco1a/1b-/- mice
# Type: in vivo
# STATED CONDITIONS: male, FVB (Abcb1a/1b;Abcg2-/-), mouse, in vivo, po, 10 mg/kg, Ctestis
PROPERTY: concentration at 4 h (ng/g)
Give the value, in units of ng/g, as a plain number.

Query: Returns the measured concentration at 4 h for the input compound. Input: COc1ccc(CN2C3CC2CN(c2ccc(-c4cc(OCC(C)(C)O)cn5ncc(C#N)c45)cn2)C3)cn1
Reply: 5730

###

# TEST PROTOCOL: 2 h pharmacokinetic study with or without elacridar in wild-type and Abcb1a/1b;Abcg2-/- mice
# Type: in vivo
# STATED CONDITIONS: male, Abcb1a/1b;Abcg2-/- (>99% FVB genetic background), mouse, plasma, po, 10 mg/kg, male Abcb1a/1b;Abcg2-/- mice, elacridar 50 mg/kg oral 2 h prior, 10 mg/kg oral, 2 h; read-out: AUC0–2h
PROPERTY: AUC(0-t) (ng·h/mL)
Give the value, in units of ng·h/mL, as a plain number.

Query: Returns the measured AUC(0-t) for the input compound. Input: COc1ccc(CN2C3CC2CN(c2ccc(-c4cc(OCC(C)(C)O)cn5ncc(C#N)c45)cn2)C3)cn1
Reply: 17300

###

# TEST PROTOCOL: 4 h main pharmacokinetic experiment in wild-type, Abcb1a/1b-/-, Abcg2-/- and Abcb1a/1b;Abcg2-/- mice
# Type: in vivo
# STATED CONDITIONS: FVB (Abcg2-/-), mouse, plasma; male Abcg2-/- mice, 10 mg/kg oral, 4 h main experiment
PROPERTY: Tmax (h)
Give the value, in units of h, as a plain number.

Query: Returns the measured Tmax for the input molecule. Input: COc1ccc(CN2C3CC2CN(c2ccc(-c4cc(OCC(C)(C)O)cn5ncc(C#N)c45)cn2)C3)cn1 [selpercatinib]
Reply: 1.4

###

# TEST PROTOCOL: 2 h pharmacokinetic study with or without elacridar in wild-type and Abcb1a/1b;Abcg2-/- mice
# Format: in vivo
# STATED CONDITIONS: wild-type (>99% FVB genetic background), mouse, brain; male wild-type mice, elacridar 50 mg/kg oral 2 h prior, 10 mg/kg oral, 2 h; read-out: Cbrain
PROPERTY: concentration at 2 h (ng/g)
Give the value, in units of ng/g, as a plain number.

Query: Returns the measured concentration at 2 h for the input compound. Input: COc1ccc(CN2C3CC2CN(c2ccc(-c4cc(OCC(C)(C)O)cn5ncc(C#N)c45)cn2)C3)cn1
Reply: 2760
